Readings of chromatographic logP for the listed molecules
- assay.explanation: logP determination by HPLC on reversed-phase columns (C 18), EEC Directive 79/831 Annex V.A8
- Format: physicochemical

Recorded chromatographic logP, per entry:
**Query** For the molecule shown here, `COC(=O)N(C)NC(=O)c1cc(C#N)cc(C)c1NC(=O)c1cc(Cn2nc(C(F)F)cc2C(F)F)nn1-c1ncccc1Cl` , give the reported chromatographic logP.
**Result** 2.59

**Query** Tell me the measured chromatographic logP of `COC(=O)N(C)N(C)C(=O)c1cc(Cl)cc(C)c1NC(=O)c1cc(Cn2nnc(C(F)(F)F)n2)nn1-c1ncccc1Cl` , please.
**Result** 3.39

**Query** For `COC(=O)N(C)NC(=O)c1cc(Cl)cc(Cl)c1NC(=O)c1cc(Cn2nnc(C(F)(F)F)n2)nn1-c1ncccc1Cl` , what is its reported chromatographic logP?
**Result** 2.92

**Query** Any idea what chromatographic logP was measured for `COC(=O)N(C)NC(=O)c1cc(Cl)cc(C)c1NC(=O)c1cc(Cn2cc(C(C)(C)C)nn2)nn1-c1ncccc1Cl` ?
**Result** 2.53

**Query** Looking for the measured chromatographic logP of `COC(=O)N(C)NC(=O)c1cc(I)cc(C)c1NC(=O)c1cc(Cn2nnc(C(F)F)n2)nn1-c1ncccc1Cl` , can you help?
**Result** 2.64

Further cases:
**Query** Could you tell me which chromatographic logP is on file for `COC(=O)N(C)NC(=O)c1cc(Cl)cc(C)c1NC(=O)c1cc(Cn2nnnc2C(F)F)nn1-c1ncccc1Cl` ?
**Result** 2.25

**Query** Fill in: chromatographic logP of `COC(=O)NNC(=O)c1cc(Cl)cc(C)c1NC(=O)c1cc(Cn2nnc(C(F)(F)F)n2)nn1-c1ncccc1Cl` is ___
**Result** 2.73

**Query** What does the data say about its chromatographic logP? Entry: `COC(=O)N(C)NC(=O)c1cc(F)cc(C)c1NC(=O)c1cc(Cn2nnc(C(F)(F)C(F)(F)F)n2)nn1-c1ncccc1Cl`
**Result** 3.05

**Query** Returns the measured chromatographic logP for the input molecule. Input: `COC(=O)N(C)NC(=O)c1cc(Cl)cc(Cl)c1NC(=O)c1cc(Cn2ncc(C(F)(F)F)n2)nn1-c1ncccc1Cl`
**Result** 2.94
